- System: NEP (SHR kidneys)
- EXPERIMENTAL PROTOCOL: Ex vivo NEP-inhibitory activity in kidneys of treated SHR
- Set-up: species or system spontaneously hypertensive rats (SHR)
- CONDITIONS USED: oral 30 μmoles/kg, 30 minutes
QUANTITY NAME: NEP-inhibition (kidneys), 30 minutes (%)
Field: numeric (%). Do not append units.

INSERT INTO assay_data (compound, quantity_name, reported_value) VALUES
  ('O=C(N[C@@H](Cc1ccc(-c2nccs2)cc1)C(=O)O)[C@@H](CS)Cc1ccccc1', 'NEP-inhibition (kidneys), 30 minutes', 55),
  ('O=C(N[C@@H](Cc1ccccc1)C(=O)O)C(CS)Cc1ccc2c(c1)OCO2 (some centres unmarked)', 'NEP-inhibition (kidneys), 30 minutes', 5),
  ('O=C(N[C@@H](Cc1ccc(O)cc1)C(=O)O)C(CS)Cc1ccc2c(c1)OCO2 (some centres unmarked)', 'NEP-inhibition (kidneys), 30 minutes', 30);

Here is another compound to look at.
So, CC(CS)C(=O)N[C@@H](Cc1ccc(O)cc1)C(=O)O (some centres unmarked) ? Its NEP-inhibition (kidneys), 30 minutes was 10
